Protocol: gradient 5% acetonitrile 3 min, to 50% in 2 min, to 85% in 15 min, held 3 min, 100 µL/min
Run Parameters: column: Zorbax Extend-C18 2.1 x 50 mm; eluents: water / acetonitrile, 0.1% formic acid
Reported Property: RP-LC retention time (s)

CC1=C(c2ccc(C(C)C)cc2)S(=O)(=O)N=C1N1CCC(C(=O)N2CCOCC2)CC1 : 779
COc1ccc(C(C)NC(=O)C2CCN(c3cnc4nccnc4c3)CC2)cc1OC (stereo not drawn) : 664
Cc1ccc(C)c(Nc2c(-c3ccccc3)nc3ncccn23)c1 : 815
O=C(Nc1cccc(F)c1)C1CCCN(c2ccc3cc(S(=O)(=O)N4CCCCC4)ccc3n2)C1 (stereo not drawn) : 908
COc1ccc(-c2noc(C3CCCN3C(=O)c3ccc(C)s3)n2)cc1 (stereo not drawn) : 996

a. CCn1cc(-c2nc(C)c(C(=O)Nc3ccc4c(c3)OCCO4)s2)c2cccnc21
b. COC1CCC12CCN(C(=O)C1CCOCC1)CC2 (stereo not drawn)
Prompt: // returns a or b , whichever has the lower RP-LC retention time Identify your selection by its label.
Completion: b
